B1: Protein S100-G, residues 1 to 79; numbered along this chain, P02633 (parent)
chain: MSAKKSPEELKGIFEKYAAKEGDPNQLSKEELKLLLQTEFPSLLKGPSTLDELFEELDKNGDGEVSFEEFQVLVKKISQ

variants of: B1; test: abundance fitness (aPCA) (normalised: wild type 0, dead -1); higher = more abundant; growth selection in yeast, the domain comes from the species named; details: Bos taurus
Assign 1 whenever abundance fitness does not fall below -0.1; assign 0 whenever it does.

Q79H
1
K5V
0
V74S
1
K33H
1
V65A
1
S28R
1
E64C
1
K76R
1

q: Can `K45Y` be said to have abundance fitness at or above -0.1?
a: 1

q: Can `E64N` be said to have abundance fitness at or above -0.1?
a: 1

q: Can `L32R` be said to have abundance fitness at or above -0.1?
a: 0
